Test: physchem
Type: physicochemical
Details: 25 °C, organic solvent or mixture, thermodynamic from solid, DGME; shaken at 25° C. for 24 h
Method: About 3 g of each solvent was weighed according to Table 3, and an excess amount of capsaicin was added. The mixture was placed into a constant-temperature oscillator for oscillation for 24 h (25° C., 200 rpm), and then centrifuged at 10000 rpm for 30 min. The supernatant was taken to measure the capsaicin content. The solubility of CAP in different solvents (different pH buffers, commonly used oil phases, and water-soluble organic solvents) was measured, with the results shown in Table 3: […]
observable: solubility at 24 h (mg/mL)
Write the number in mg/mL without appending the unit.

Exercise: Supply solubility at 24 h value. Item: COc1cc(CNC(=O)CCCC/C=C/C(C)C)ccc1O
Solution: 502
